- system.under.test: Phospholipid hydroperoxide glutathione peroxidase GPX4 (Homo sapiens) (UniProt P36969)
- Sequence (P36969 whole entry, looked up): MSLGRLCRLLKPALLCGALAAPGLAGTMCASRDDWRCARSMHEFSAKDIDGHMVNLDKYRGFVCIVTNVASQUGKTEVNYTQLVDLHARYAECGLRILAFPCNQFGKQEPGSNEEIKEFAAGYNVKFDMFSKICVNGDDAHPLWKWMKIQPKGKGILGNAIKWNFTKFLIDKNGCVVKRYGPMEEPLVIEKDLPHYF
- test.protocol: Primary qHTS Assay for Inhibitors of Recombinant Selenoprotein Glutathione Peroxidase 4 (GPX4) (AID 1845192); also: nearly all actives have a fitted effect of over 65% in size
- condition.label: recombinant GPX4, GR-coupled NADPH fluorescence, 15 min; series mostly up to 50 µM
Results filed as inconclusive are left out. Calls of active or inactive are those of the source. Calls follow the shape of the dose curve; as a rule, active = well fitted inhibition curve with a large enough effect; inconclusive = small, poorly fitted or top-dose-only effect; inactive = flat fitted curve, though single readings scatter. Where a SMILES comes first, the peptide text is derived from it. Bridges are numbered along the chain shown (N, C = ends). [ ]: non-standard residue; d: D form. hArg = N=C(N)NCCCC[C@H](N)C(=O)O; Mpa = O=C(O)CCS
metric: outcome

Answered cases to consult:
CC1(C)S[C@@H]2[C@H](NC(=O)C(C(=O)O)c3ccccc3)C(=O)N2[C@H]1C(=O)O (stereo not given in full): inactive
CCS(=O)(=O)CCn1c([N+](=O)[O-])cnc1C: inactive
Cc1ccccc1N=Nc1ccc(N=Nc2c(O)ccc3ccccc23)c(C)c1: inactive
CCCCC1(COC(=O)CCC(=O)O)C(=O)N(c2ccccc2)N(c2ccccc2)C1=O: inactive
C[N+]1(C)CCCC(OC(=O)C(O)(c2ccccc2)c2ccccc2)C1 (stereo not given): inactive
c1ccc2[nH]ccc2c1: inactive
CCCCCCCCCCCCCCCCCCO: inactive
Cc1cccc(C)c1NC(=O)CC12CCCN1CCC2: inactive

What value of measured outcome is listed for NC(=O)[C@@H]1CSSCCC(=O)N[C@@H](CCCCN=C(N)N)C(=O)NCC(=O)N[C@@H](CC(=O)O)C(=O)N[C@@H](Cc2c[nH]c3ccccc23)C(=O)N2CCC[C@H]2C(=O)N1 ([Mpa][hArg]GDWPC-NH2; disulfide 1-7) ?
inactive

Also, `CC1CCN(CCCC(=O)c2ccc(F)cc2)CC1` please.
inactive

Same again, this time with `Cc1cc(OI)c(C(C)C)cc1-c1cc(C(C)C)c(OI)cc1C`
inactive

// query: `Cc1onc(-c2ccccc2)c1-c1ccc(S(N)(=O)=O)cc1`
inactive

Then what about the compound `OCc1ccc(Cl)cc1Cl` ?
inactive

Where do the numbers come from? From PubChem BioAssay (NCATS).
